Test system: compound 48/80-induced lethality
Assay: Protection of rats from compound 48/80-induced lethality
Format: in vivo, rat (male, inbred Wistar strain)
Conditions: Rattus norvegicus, 4 h, read-out: Compound 48/80 lethality test in rats-ED50
Procedure: Protection of rats from compound 48/80-induced lethality The protection from compound 48/80-induced lethal circulatory collapse appears to be a simple way of evaluating quantitatively the antihistaminic activity of test compounds. Male rats of an inbred Wistar strain, weighing 240-260 g were used in the experiment. After overnight starvation the rats were transferred to conditioned laboratories (temp.=21±1° C., relative humidity=65±5%). […]
Would you mind telling me the reported ED50 of each entry?
One number for each entry, in mg/kg.

# example entries with known answers
Cc1nc2ccc(Cl)cn2c(=O)c1CCN1CCC(Nc2nc3cccnc3n2Cc2ccco2)CC1    0.04
Cn1cnc2c1c(=O)n(CCN1CCC(Nc3nc4cccnc4n3Cc3ccc(F)cc3)CC1)c(=O)n2C    0.16

Quick request: ED50 for each listed item, please.
1. Cc1nc2sccn2c(=O)c1CCN1CCC(Nc2nc3ccccc3n2Cc2ccco2)CC1
2. Cn1cnc2c(NCCN3CCC(Nc4nc5cc(O)ccc5n4Cc4ccc(F)cc4)CC3)ncnc21

Reply |
[0.04, 0.08]
